Test system: Microbacterium otitidis
Experiment: In vitro activity (MIC) by agar and broth dilution methods against clinical isolates
Type: cell-based
Conditions: clinical isolate MCC 10647; read-out: minimum inhibitory concentration (MIC)
Binary call on MIC with cut-off 1 µg/mL: strictly below means Yes, and equality or higher means No.

For CCC[C@@H]1C[C@@H](C(=O)N[C@@H]([C@H]2O[C@H](SC)[C@H](O)[C@@H](O)[C@H]2O)[C@H](C)Cl)N(C)C1 , is the recorded MIC below the cut-off of 1 µg/mL?
Yes

Lab note: MIC threshold 1 µg/mL. Does this compound come in strictly under it? NC[C@H]1O[C@H](O[C@H]2[C@H](O)[C@@H](O[C@H]3O[C@H](CO)[C@@H](O)[C@H](N)[C@H]3O)[C@H](N)C[C@@H]2N)[C@H](N)C[C@@H]1O
No

Hello, I'm reviewing records and need to know if MIC of CC1COc2c(N3CCN(C)CC3)c(F)cc3c(=O)c(C(=O)O)cn1c23 (stereo not shown) is below 1 µg/mL. Could you check?
No

Quick check: MIC of CC[C@H]1OC(=O)[C@H](C)[C@@H](O[C@H]2C[C@@](C)(OC)[C@@H](O)[C@H](C)O2)[C@H](C)[C@@H](O[C@@H]2O[C@H](C)C[C@H](N(C)C)[C@H]2O)[C@](C)(O)C[C@@H](C)C(=O)[C@H](C)[C@@H](O)[C@]1(C)O under 1 µg/mL?
Yes

A record lists Cc1onc(-c2ccccc2)c1C(=O)N[C@@H]1C(=O)N2[C@@H]1SC(C)(C)[C@@H]2C(=O)O . Is its MIC below 1 µg/mL?
No

----------
Test system: Microbacterium otitidis
Assay: In vitro activity (MIC) by agar and broth dilution methods against clinical isolates
Format: cell-based
Details: clinical isolate MCC 11495; read-out: minimum inhibitory concentration (MIC)
endpoint_label: MIC (µg/mL)
Quick note: give the figure in µg/mL, leave out the unit.

The recorded MIC for Cc1onc(-c2ccccc2)c1C(=O)N[C@@H]1C(=O)N2[C@@H]1SC(C)(C)[C@@H]2C(=O)O [Oxacillin] is 4

Entry CN(C)[C@@H]1C(O)=C(C(N)=O)C(=O)[C@@]2(O)C(O)=C3C(=O)c4c(O)cccc4[C@@](C)(O)[C@H]3C[C@@H]12 [Tetracycline] ; MIC = 1

Noted for NC[C@H]1O[C@H](O[C@H]2[C@H](O)[C@@H](O[C@H]3O[C@H](CO)[C@@H](O)[C@H](N)[C@H]3O)[C@H](N)C[C@@H]2N)[C@H](N)C[C@@H]1O [Tobramycin] : its MIC reads 4

Where do these numbers come from? They come from patent US6440964B1.
